- assay-name: Metabolic studies in BALB/c mice (intact radiopeptide by radio-HPLC)
- Format: in vivo
- experimental-parameters: i.v., 2 nmol, 10 min p.i., liver homogenate, two animals per peptide
Where a SMILES comes first, the peptide text is derived from it. [ ]: non-standard residue; d: D form. The star is where a group is joined. DOTA = O=C(O)CN1CCN(CC(=O)O)CCN(CC(=O)*)CCN(CC(=O)O)CC1; 1Nal = N[C@@H](Cc1cccc2ccccc12)C(=O)O; NMeNle = CCCC[C@H](NC)C(=O)O
Overview of reported Intact radiopeptide in liver across a group of compounds:
Field format: number, assumed %, no unit text.

For orientation, consider the following solved cases.
>>> endpoint_value("CCCC[C@@H](C(=O)N[C@@H](CC(=O)O)C(=O)N[C@@H](Cc1cccc2ccccc12)C(=O)NC)N(C)C(=O)[C@H](Cc1c[nH]c2ccccc12)NC(=O)CNC(=O)[C@H](Cc1ccc(O)cc1)NC(=O)[C@H](C)NC(=O)[C@@H](CCC(=O)O)NC(=O)CN1CCN(CC(=O)O)CCN(CC(=O)O)CCN(CC(=O)O)CC1 [[^111In]In-DOTA-MGS5[NHCH3]] [metal not drawn]")
78.1
>>> endpoint_value("CCCC[C@@H](C(=O)N[C@@H](CC(=O)O)C(=O)N[C@@H](Cc1cccc2ccccc12)C(N)=O)N(C)C(=O)[C@H](Cc1c[nH]c2ccccc12)NC(=O)CNC(=O)[C@H](Cc1ccc(O)cc1)NC(=O)[C@H](C)NC(=O)[C@@H](CCCCN)NC(=O)CN1CCN(CC(=O)O)CCN(CC(=O)O)CCN(CC(=O)O)CC1 [[^111In]In-DOTA-[DLys^1]MGS5] [metal not drawn] ({DOTA}-[dK]AYGW[NMeNle]D[1Nal]-NH2)")
82.5
>>> endpoint_value("CCCC[C@@H](C(=O)N[C@@H](CC(=O)O)C(=O)N(C)[C@@H](Cc1cccc2ccccc12)C(N)=O)N(C)C(=O)[C@H](Cc1c[nH]c2ccccc12)NC(=O)CNC(=O)[C@H](Cc1ccc(O)cc1)NC(=O)[C@H](C)NC(=O)[C@@H](CCC(=O)O)NC(=O)CN1CCN(CC(=O)O)CCN(CC(=O)O)CCN(CC(=O)O)CC1 [[^111In]In-DOTA-[(N-Me)1Nal^8]MGS5] [metal not drawn]")
94.9

Please examine the following record next.
Exercise: Recorded Intact radiopeptide in liver of CCCC[C@@H](C(=O)N[C@@H](CC(=O)O)C(=O)N[C@@H](Cc1ccc2ccccc2c1)C(N)=O)N(C)C(=O)[C@H](Cc1c[nH]c2ccccc12)NC(=O)CNC(=O)[C@H](Cc1ccc(O)cc1)NC(=O)[C@H](C)NC(=O)[C@@H](CCC(=O)O)NC(=O)CN1CCN(CC(=O)O)CCN(CC(=O)O)CCN(CC(=O)O)CC1 [[^111In]In-DOTA-[2Nal^8]MGS5] [metal not drawn] , please.
Solution: 83.9
